Provenance of the data: ChEMBL document CHEMBL4513216

# INHIBITION per entry
Test system: Plasmodium falciparum
MEASUREMENT NOTES: Screen against P. falciparum Asexual Blood Stage (ABS), at 5uM
Assay type: functional, Dd2
CONDITION SUMMARY: tested at 5 uM
Screen size: about 65,000 compounds; about 2,100 (3.2%) showed an effect of 50% or more. The median lay at about -52%. What follows is part of a selection rich in strong results, with near analogues and random picks from the rest.
Field format: number, assumed %, no unit text.

Take a look at these entries with their results.
- CCOc1ccccc1CNCC1CCN(CC(C)O)CC1 (stereo not drawn): 75.9
- CCN(CCN(C)C)c1nc(CCN)nc2sc(C)c(C)c12: 89.8
- FC(F)Oc1ccccc1CN1CCCC(c2nccn2CC2CC2)C1 (stereo not drawn): 86.4
- CN1CCN(Cc2cccc(C#N)c2)Cc2cccnc21: -71
- Cc1sc2nc(CCN)nc(N(CCN(C)C)CC3CCCO3)c2c1C (stereo not drawn): 70.2

Continue with the compound presented below.
*Q* Query (compound): COc1cccc(CNCc2cccnc2-n2cccn2)c1OC ; field requested: INHIBITION
*A* 70.1
